Molecular target: CFTR (Homo sapiens)
Sequence (P13569 with tags, fused parts or gaps DEL508-508): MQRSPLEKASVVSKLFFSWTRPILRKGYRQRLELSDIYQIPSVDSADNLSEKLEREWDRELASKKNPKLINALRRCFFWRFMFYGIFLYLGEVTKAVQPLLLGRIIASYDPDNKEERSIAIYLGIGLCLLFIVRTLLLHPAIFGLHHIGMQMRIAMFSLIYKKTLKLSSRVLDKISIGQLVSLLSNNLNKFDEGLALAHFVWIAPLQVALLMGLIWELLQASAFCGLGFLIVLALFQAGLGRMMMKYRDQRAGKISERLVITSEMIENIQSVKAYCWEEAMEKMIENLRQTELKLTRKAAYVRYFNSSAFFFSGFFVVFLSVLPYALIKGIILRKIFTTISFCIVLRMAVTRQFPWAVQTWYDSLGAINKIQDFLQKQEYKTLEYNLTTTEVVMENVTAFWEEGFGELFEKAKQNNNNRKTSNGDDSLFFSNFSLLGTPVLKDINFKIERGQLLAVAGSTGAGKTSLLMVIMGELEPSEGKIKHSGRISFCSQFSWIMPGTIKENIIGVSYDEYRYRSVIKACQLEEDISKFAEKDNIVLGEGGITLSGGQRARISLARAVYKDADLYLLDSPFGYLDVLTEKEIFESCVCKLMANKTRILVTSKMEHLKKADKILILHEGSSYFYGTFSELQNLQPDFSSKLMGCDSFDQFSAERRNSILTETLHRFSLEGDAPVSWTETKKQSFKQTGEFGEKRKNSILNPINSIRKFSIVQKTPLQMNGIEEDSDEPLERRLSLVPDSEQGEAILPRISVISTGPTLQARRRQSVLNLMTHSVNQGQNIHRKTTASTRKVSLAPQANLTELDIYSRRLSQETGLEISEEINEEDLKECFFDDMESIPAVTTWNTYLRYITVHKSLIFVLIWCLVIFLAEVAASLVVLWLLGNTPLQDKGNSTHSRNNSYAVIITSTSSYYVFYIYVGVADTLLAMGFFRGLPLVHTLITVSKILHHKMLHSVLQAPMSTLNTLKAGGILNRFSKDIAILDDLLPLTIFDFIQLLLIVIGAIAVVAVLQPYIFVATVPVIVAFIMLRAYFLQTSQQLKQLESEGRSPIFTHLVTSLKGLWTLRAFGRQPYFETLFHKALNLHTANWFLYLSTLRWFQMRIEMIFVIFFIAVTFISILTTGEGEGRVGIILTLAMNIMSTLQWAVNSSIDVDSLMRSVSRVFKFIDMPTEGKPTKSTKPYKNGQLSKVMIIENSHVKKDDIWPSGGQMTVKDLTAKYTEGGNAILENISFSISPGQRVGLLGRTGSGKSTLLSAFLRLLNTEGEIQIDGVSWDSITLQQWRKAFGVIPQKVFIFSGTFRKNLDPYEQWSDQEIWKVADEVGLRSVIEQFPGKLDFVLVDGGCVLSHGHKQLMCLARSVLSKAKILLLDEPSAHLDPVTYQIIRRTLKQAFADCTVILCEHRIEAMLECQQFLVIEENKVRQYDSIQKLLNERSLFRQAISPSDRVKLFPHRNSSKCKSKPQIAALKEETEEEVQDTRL
Test: Membrane Potential Dye, Enteroid Assay A
Type: cell-based
Settings: Table 8; read-out: Ent. A EC50
readoutKind: EC50

Cc1cccc(C)c1-c1cc2nc(n1)NS(=O)(=O)c1cccc(c1)C(=O)NCC(c1ccc(C(C)(C)C)cc1)O2 (stereo not drawn) [Compound 3] ... < 1000 nM
Cc1cccc(C)c1-c1cc2nc(n1)NS(=O)(=O)c1cccc(c1)C(=O)N[C@H](CC(C)C)[C@@H](C1CCCCC1)O2 [Compound 140] ... < 1000 nM
Cc1cccc(C)c1-c1cc2nc(n1)NS(=O)(=O)c1cccc(c1)C(=O)NCC(c1ccc(Br)cc1)O2 (racemic) [Compound 18] ... < 1000 nM

Prompt: # query: EC50 | item Cc1cc(C(C)(C)C)ccc1C1CNC(=O)c2cccc(c2)S(=O)(=O)Nc2nc(cc(-c3c(C)cccc3C)n2)O1 (stereo not drawn) [Compound 157] | system: CFTR (Homo sapiens)
Response: < 1000 nM

Prompt: Reported EC50 for CFTR (Homo sapiens), given Cc1cccc(C)c1-c1cc2nc(n1)NS(=O)(=O)c1cncc(c1)C(=O)N[C@H](CC1CCCCC1)CO2 [Compound 412] ?
Response: < 1000 nM

Prompt: Which measured EC50 belongs to Cc1cccc(C)c1-c1cc2nc(n1)NS(=O)(=O)c1cccc(c1)C(=O)NC(CCC1CCOCC1)CO2 (stereo not drawn) [Compound 186] , tested on CFTR (Homo sapiens)?
Response: 3000 to 30000 nM

Prompt: Item Cc1cccc(C)c1-c1cc2nc(n1)NS(=O)(=O)c1ccnc(c1)C(=O)N[C@H](CC1CCCCC1)CO2 [Compound 142] with CFTR (Homo sapiens) - EC50?
Response: 1000 to 3000 nM

Prompt: Which EC50 is reported with CFTR (Homo sapiens) for this entry: Cc1cccc(C)c1-c1cc2nc(n1)NS(=O)(=O)c1cccc(c1)C(=O)N[C@@H](CCC(F)(F)F)CO2 (stereo in doubt) [Compound 189] ?
Response: 1000 to 3000 nM

Prompt: Hello, I am looking for reported EC50 with CFTR (Homo sapiens) for Cc1cccc(C)c1-c1cc2nc(n1)NS(=O)(=O)c1cccc(c1)C(=O)NCC(c1ccc(C3(C(F)(F)F)CC3)cc1)O2 (single isomer, unassigned) [Compound 11] . Could you help?
Response: < 1000 nM

Prompt: Observed EC50 on CFTR (Homo sapiens) for Cc1ccc(C2CNC(=O)c3cccc(c3)S(=O)(=O)Nc3nc(cc(-c4c(C)cccc4C)n3)O2)cc1 (stereo not drawn) [Compound 407] , please.
Response: < 1000 nM

Prompt: Return EC50 measured with CFTR (Homo sapiens) given this molecule: Cc1cccc(C)c1-c1cc2nc(n1)NS(=O)(=O)c1cccc(c1)C(=O)NCC(CN1CCCCC1)O2 (stereo not drawn) [Compound 410]
Response: 3000 to 30000 nM

Prompt: GET /values?readout=EC50&system=CFTR (Homo sapiens)&item= Cc1cccc(C)c1-c1cc2nc(n1)NS(=O)(=O)c1cccc(c1)C(=O)NCC(c1ccccc1Cl)O2 (stereo not drawn) [Compound 31]
Response: < 1000 nM
